B1: TNNI2 (parent)
chain: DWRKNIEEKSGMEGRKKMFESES

Variants of: B1
Assay: protein stability index of a GFP-peptide fusion (GPS, HEK-293T) (PSI 1-6); higher = more stable;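 further: lentivirally expressed fusions sorted by FACS into six bins by GFP to DsRed ratio, PSI derived from sequencing read proportions per bin multiplied by bin number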
Details: c terminus: native
We'd kindly ask you to apply these protein stability index classes: lo (below 2), mid (2 to below 3), hi (3 or more)

Prompt: Returns: class label. Input: DWRKNIEEKSGMEGRKEMFESES
Response: mid

Prompt: Entry DWRKNIEEKSGMEGRKKMFSSES please
Response: hi

Prompt: Entry DWRKNIEEKSGMEGRKKMFESEY please
Response: mid

Prompt: Entry DWRKNIEEKSGMEGRKKCFESES please
Response: hi

Prompt: Entry DWRKNNEEKSGMEGRKKMFESES please
Response: mid

Prompt: Entry DWRKNIEWKSGMEGRKKMFESES please
Response: lo

Prompt: Entry DWRKNIEEKCGMEGRKKMFESES please
Response: lo

Prompt: Entry DWRKNIEEKSQMEGRKKMFESES please
Response: lo

Prompt: Entry DWRKNIEEKSGMEGRKKMFESPS please
Response: mid

Prompt: Entry DWRKNIEEKSGMEGRKSMFESES please
Response: mid

Prompt: Entry DWRKNIEEKSGMEGRRKMFESES please
Response: mid

Prompt: Entry DWRENIEEKSGMEGRKKMFESES please
Response: mid

Prompt: Entry DWRKNIEEKSGMEGRKKMFESET please
Response: lo

Prompt: Entry DWRKNIEEKSGMEGRKKMFERES please
Response: hi

Prompt: Entry DWRKNIEEKSGMEGRKKMFEWES please
Response: hi

Prompt: Entry DWRKNIEEKSGMEGRKKEFESES please
Response: hi

Prompt: Entry DWRKNIEEKSGMEGRKKMEESES please
Response: hi

Prompt: Entry DWRKNIEEKHGMEGRKKMFESES please
Response: mid

Prompt: Entry DWRFNIEEKSGMEGRKKMFESES please
Response: mid

Prompt: Entry DWRKTIEEKSGMEGRKKMFESES please
Response: hi

Prompt: Entry DWRKNIEEKSGMEGRKKMDESES please
Response: hi

Prompt: Entry DWRKNIEEKSGMEGRKKMFESER please
Response: mid

Prompt: Entry DWRKNIEEKLGMEGRKKMFESES please
Response: lo

Prompt: Entry DWRKNIEEKSCMEGRKKMFESES please
Response: lo

Prompt: Entry DWRKNIEENSGMEGRKKMFESES please
Response: mid

Prompt: Entry DWRKNIEEKSGEEGRKKMFESES please
Response: mid

Prompt: Entry DWRKWIEEKSGMEGRKKMFESES please
Response: lo

Prompt: Entry DWRKNIEEKSGMEGRLKMFESES please
Response: mid

Prompt: Entry DWRKNIEEKSGMEGRKKMTESES please
Response: hi

Prompt: Entry DWRKNIEEKSGMEGRTKMFESES please
Response: mid

Prompt: Entry DWRKNIEEKSGMSGRKKMFESES please
Response: lo

Prompt: Entry QWRKNIEEKSGMEGRKKMFESES please
Response: mid

Prompt: Entry DWRKNIEEKSGNEGRKKMFESES please
Response: mid

Prompt: Entry DCRKNIEEKSGMEGRKKMFESES please
Response: mid

Prompt: Entry DWRKNIEEKSGWEGRKKMFESES please
Response: lo

Prompt: Entry DWMKNIEEKSGMEGRKKMFESES please
Response: hi

Prompt: Entry DWRKNIEEKSGMEGRKKMFESLS please
Response: hi

Prompt: Entry DWRKNIEEFSGMEGRKKMFESES please
Response: mid

Prompt: Entry DWRKNIEEKSGMVGRKKMFESES please
Response: mid

Prompt: Entry DWRKNIEEKSGMEGRKKHFESES please
Response: mid

Prompt: Entry DWRKNIEEKSGMEGRIKMFESES please
Response: lo

Prompt: Entry DWRKNIEEKSTMEGRKKMFESES please
Response: lo

Prompt: Entry DWRKNIEEKSGMEGRKKMFFSES please
Response: hi

Prompt: Entry DWRMNIEEKSGMEGRKKMFESES please
Response: hi

Prompt: Entry DTRKNIEEKSGMEGRKKMFESES please
Response: mid

Prompt: Entry DWRKNIEEKSGMEGRKKMFETES please
Response: hi

Prompt: Entry DWRWNIEEKSGMEGRKKMFESES please
Response: mid

Prompt: Entry DLRKNIEEKSGMEGRKKMFESES please
Response: mid

Prompt: Entry DWVKNIEEKSGMEGRKKMFESES please
Response: mid

Prompt: Entry DWRKHIEEKSGMEGRKKMFESES please
Response: mid

Prompt: Entry DWRKNIEEKSGMEPRKKMFESES please
Response: mid

Prompt: Entry NWRKNIEEKSGMEGRKKMFESES please
Response: mid

Prompt: Entry DWTKNIEEKSGMEGRKKMFESES please
Response: mid

Prompt: Entry DWRKEIEEKSGMEGRKKMFESES please
Response: mid

Prompt: Entry DWRKGIEEKSGMEGRKKMFESES please
Response: mid
